Readings of pEC50 for the listed molecules
Tested on: GILZ mRNA in HUT-78 cells (CD74 positive T lymphoma)
measurement_protocol: GILZ mRNA induction in HUT-78 cells (RT-PCR)
Assay type: cell-based, human
particulars: Homo sapiens, HuT78, GILZ mRNA, 18 hours, free drug
Procedure: In vitro activity and targeted delivery of ADC 12-4, 12-5, 12-6, 12-7, 12-9, 12-10, the isotype-matched negative controls 12-11, 12-12, and naked anti-hCD74 (LL1) control were assessed in HUT-78 an SUDHL-6 cells (CD74 positive T and B lymphoma cell lines respectively) as well as 786-O cells (a CD74 negative renal carcinoma cell line). […] The quantitation of Glucocorticoid-induced leucine zipper (GILZ) mRNA expression was determined by real time-PCR. […]
Answer as the number alone; pEC50 is minus log10 of concentration in mol/L.

[
  {
    "molecule": "CCCC1O[C@@H]2C[C@H]3[C@@H]4CCC5=CC(=O)C=C[C@]5(C)[C@H]4[C@@H](O)C[C@]3(C)[C@]2(C(=O)CO)O1 (some centres unmarked) [Budesonide, budesonide]",
    "pEC50": 9.19
  }
]

Turning to the following molecule.
Exercise: Would you mind telling me what pEC50 value was observed for CCC(=O)O[C@]1(C(=O)SCF)[C@H](C)C[C@H]2[C@@H]3C[C@H](F)C4=CC(=O)C=C[C@]4(C)[C@@]3(F)[C@@H](O)C[C@@]21C [Fluticasone Propionate, fluticasone propionate] ?
Solution: 9.35
